// provenance: patent US20160355605A1

TARGET OR TEST SYSTEM: T1, Muc1 mucin bearing the CA6 sialoglycotope (DS6 antigen), as expressed by CA6-positive human tumour cell lines (human, UniProt P15941 24-1255, CA6 epitope: sialic acid-dependent glycotope on sialylated O-linked carbohydrate chains; sites not stated)
T1 construct: whole, on cells; Flow cytometry used whole cells; dot blots, immunoprecipitation and western blots used cell lysates; also called CA6 antigen; >250 kDa band
EXPERIMENT DESCRIPTION: flow cytometry competition; competitor 2 nM biotin-muDS6, streptavidin-DTAF (called apparent EC50 in paragraph 357)
READOUT TYPE: pIC50
For clarity, pIC50 is expressed as the negative log10 of concentration in mol/L.

Q. Please indicate pIC50 recorded for chimeric DS6 antibody (antibody, V domains shown, also called chDS6) VH: QAYLQQSGAELVRSGASVKMSCKASGYTFTSYNMHWVKQTPGQGLEWIGYIYPGNGATNYNQKFKGKATLTADPSSSTAYMQISSLTSEDSAVYFCARGDSVPFAYWGQGTLVTVSA VL: QIVLTQSPAIMSASPGEKVTITCSAHSSVSFMHWFQQKPGTSPKLWIYSTSSLASGVPARFGGSGSGTSYSLTISRMEAEDAATYYCQQRSSFPLTFGAGTKLELKR
A. 8.77

Q. Please indicate pIC50 recorded for murine DS6 anti-CA6 monoclonal antibody (antibody, V domains shown, Murine monoclonal IgG purified from the hybridoma (ATCC PTA-4449); also called muDS6; DS6 antibody) VH: QAYLQQSGAELVRSGASVKMSCKASGYTFTSYNMHWVKQTPGQGLEWIGYIYPGNGATNYNQKFKGKATLTADPSSSTAYMQISSLTSEDSAVYFCARGDSVPFAYWGQGTLVTVSA VL: QIVLTQSPAIMSASPGEKVTITCSAHSSVSFMHWFQQKPGTSPKLWIYSTSSLASGVPARFGGSGSGTSYSLTISRMEAEDAATYYCQQRSSFPLTFGAGTKLELKR
A. 8.72

Q. Please indicate pIC50 recorded for humanized DS6 antibody version 1.01 (antibody, V domains shown, also called huDS6v1.01; huDS6 v1.01) VH: QAQLVQSGAEVVKPGASVKMSCKASGYTFTSYNMHWVKQTPGQGLEWIGYIYPGNGATNYNQKFQGKATLTADTSSSTAYMQISSLTSEDSAVYFCARGDSVPFAYWGQGTLVTVSA VL: EIVLTQSPATMSASPGERVTITCSAHSSVSFMHWFQQKPGTSPKLWIYSTSSLASGVPARFGGSGSGTSYSLTISSMEAEDAATYYCQQRSSFPLTFGAGTKLELKR
A. 8.52

Q. Please indicate pIC50 recorded for humanized DS6 antibody version 1.21 (antibody, V domains shown, also called huDS6v1.21; huDS6 v1.21) VH: QAQLVQSGAEVVKPGASVKMSCKASGYTFTSYNMHWVKQTPGQGLEWIGYIYPGNGATNYNQKFQGKATLTADPSSSTAYMQISSLTSEDSAVYFCARGDSVPFAYWGQGTLVTVSA VL: EIVLTQSPATMSASPGERVTITCSAHSSVSFMHWFQQKPGTSPKLWIYSTSSLASGVPARFGGSGSGTSYSLTISSMEAEDAATYYCQQRSSFPLTFGAGTKLELKR
A. 8.72
